Target: T1, cynomolgus MCSP D3 (cynomolgus, UniProt Q6UVK1 1582-2224 (human entry), limits assumed)
T1 construct: Recombinant, captured through anti-Penta His in the avidity set-up; also called Cyno MCSP; cynomolgus homologue
T1 chain: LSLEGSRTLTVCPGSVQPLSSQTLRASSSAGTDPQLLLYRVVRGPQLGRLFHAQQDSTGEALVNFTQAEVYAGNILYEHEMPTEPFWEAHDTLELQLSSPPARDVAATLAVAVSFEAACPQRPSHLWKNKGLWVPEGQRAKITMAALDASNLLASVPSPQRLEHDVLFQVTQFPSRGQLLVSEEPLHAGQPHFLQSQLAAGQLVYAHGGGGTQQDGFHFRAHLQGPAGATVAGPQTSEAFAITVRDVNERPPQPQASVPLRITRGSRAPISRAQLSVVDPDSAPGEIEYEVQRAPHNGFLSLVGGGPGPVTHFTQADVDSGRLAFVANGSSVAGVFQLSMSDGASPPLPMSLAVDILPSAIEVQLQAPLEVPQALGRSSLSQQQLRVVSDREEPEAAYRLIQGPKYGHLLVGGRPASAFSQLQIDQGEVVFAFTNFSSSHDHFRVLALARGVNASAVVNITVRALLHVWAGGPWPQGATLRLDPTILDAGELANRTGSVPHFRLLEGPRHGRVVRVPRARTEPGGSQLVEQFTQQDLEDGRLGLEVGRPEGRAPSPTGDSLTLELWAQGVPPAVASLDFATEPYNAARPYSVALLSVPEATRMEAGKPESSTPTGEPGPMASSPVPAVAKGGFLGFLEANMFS
Assay: SPR ProteOn XPR36; parental M4-3/ML2 IgG KD against variant IgG KD
MET means recorded Fold increase over parent (IgG KD) is 2 fold or above; NOT MET means it is below 2 fold.

| binder | label |
| --- | --- |
| M4-3/ML2(G3) IgG (antibody, V domains shown, Human IgG1 format, purified from mammalian production) VH: QVQLQESGPGLVKPSQTLSLTCTVSGGSITSGYYWNWIRQHPGKGLEWIGYITYDGSNNYNPSLKSRVTISRDTSKNQFSLKLSSVTAADTAVYYCADFDYWGQGTLVTVSS VL: DIQMTQSPSSLSASVGDRVTITCRASQGIRNYLNWYQQKPGKAPKLLIYYTSSLHSGVPSRFSGSGSGTDYTLTISSLQPEDFATYYCQQYSALPWTFGQGTKVEIK | MET |
| M4-3(A7)/ML2(C5) IgG (antibody, V domains shown, Human IgG1 format, purified from mammalian production) VH: QVQLQESGPGLVKPSQTLSLTCTVSGGSITDGYYWNWIRQHPGKGLEWIGYITFDGRNNYNPSLKSRVTISRDTSKNQFSLKLSSVTAADTAVYYCADFDYWGQGTLVTVSS VL: DIQMTQSPSSLSASVGDRVTITCRASRGIREYLNWYQQKPGKAPKLLIYYTGSLHSGVPSRFSGSGSGTDFTLTISSLQPEDFATYYCQQYSELPWTFGQGTKVEIK | MET |
| M4-3/ML2(E10) IgG (antibody, V domains shown, Human IgG1 format, purified from mammalian production) VH: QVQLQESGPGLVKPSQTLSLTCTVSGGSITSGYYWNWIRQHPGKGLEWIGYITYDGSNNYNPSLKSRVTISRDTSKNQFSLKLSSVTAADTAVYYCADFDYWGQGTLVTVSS VL: DIQMTQSPSSLSASVGDRVTITCRASYGIRGYLNWYQQKPGKAPKLLIYYTSSLHSGVPSRFSGSGSGTDFTLTISSLQPEDFATYHCQQYSKLPWTFGQGTKVEIK | NOT MET |
| M4-3(C1)/ML2 IgG (antibody, V domains shown, Human IgG1 format, purified from mammalian production) VH: QVQLQESGPGLVKPSQTLSLTCTVSGGSITSGYYWNWIRQHPGKGLEWIGYITFDGSNNYNPSLKSRVTISRDTSKNQFSLKLSSVTAADTAVYYCADFDYWGQGTLVTVSS VL: DIQMTQSPSSLSASVGDRVTITCRASQGIRNYLNWYQQKPGKAPKLLIYYTSSLHSGVPSRFSGSGSGTDFTLTISSLQPEDFATYYCQQYSKLPWTFGQGTKVEIK | MET |
| M4-3(C1)/ML2(C5) IgG (antibody, V domains shown, Human IgG1 format, produced in HEK293-EBNA) VH: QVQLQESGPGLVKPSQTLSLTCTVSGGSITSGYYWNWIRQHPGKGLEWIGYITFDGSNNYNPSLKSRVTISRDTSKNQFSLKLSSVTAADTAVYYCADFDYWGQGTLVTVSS VL: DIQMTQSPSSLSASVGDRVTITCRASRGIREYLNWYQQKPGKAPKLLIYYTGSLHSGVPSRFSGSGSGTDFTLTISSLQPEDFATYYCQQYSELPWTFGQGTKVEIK | MET |

Please tell me: is the binder M4-3(A7)/ML2(E10) IgG (antibody, V domains shown, Human IgG1 format, purified from mammalian production) VH: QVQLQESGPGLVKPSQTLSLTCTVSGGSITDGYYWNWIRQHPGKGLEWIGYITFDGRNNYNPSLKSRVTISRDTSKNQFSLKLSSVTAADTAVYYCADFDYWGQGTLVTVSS VL: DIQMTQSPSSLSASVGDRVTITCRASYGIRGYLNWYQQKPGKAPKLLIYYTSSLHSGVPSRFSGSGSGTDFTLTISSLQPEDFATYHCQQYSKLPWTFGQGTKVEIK at or over 2 fold in terms of Fold increase over parent (IgG KD)?
MET
